Give measured GI50 for each item. Keep answers brief.
Respond with a number, then the unit of measure.

Record for C[C@H]1[C@H](C)CC[C@]2(C(=O)Nc3ccc4ncccc4c3)CC[C@]3(C)C(=CC[C@@H]4[C@@]5(C)CCCNC(C)(C)[C@@H]5CC[C@]43C)[C@H]12 under target or system UACC-62 (Melanoma): GI50 reported as 1.74 µM

Hey, UACC-62 (Melanoma) data for C=C(C)[C@@H]1CC[C@]2(COS(=O)(=O)c3ccc(C)cc3)CC[C@]3(C)[C@@H](CC[C@@H]4[C@@]5(C)CCCNC(C)(C)[C@@H]5CC[C@]43C)[C@@H]12 : GI50 came out at 2.05 µM

The measured GI50 that C=C(C)[C@@H]1CCC=C2CC[C@]3(C)[C@H](CC[C@@H]4[C@@]5(C)CCCNC(C)(C)[C@@H]5CC[C@]43C)[C@H]21 showed for UACC-62 (Melanoma) is 1.73 µM

Recorded GI50 for CC1(C)NCCC[C@]2(C)[C@H]3C=CC4=C5C[C@@](C)(CO)CC[C@]5(C)CC[C@@]4(C)[C@]3(C)CC[C@@H]12 on UACC-62 (Melanoma) was 3.13 µM

Form field GI50 for item C=C(C)[C@@H]1CC[C@]2(C(=O)N[C@H](CO)Cc3ccccc3)CC[C@]3(C)[C@H](CC[C@@H]4[C@@]5(C)CCCNC(C)(C)[C@@H]5CC[C@]43C)[C@@H]12 on UACC-62 (Melanoma): 1.76 µM

* * *

Test system: NCI-H460 (NSC lung cancer)
Assay Summary: NCI-60 screen (SRB, 48 h)
Test Parameters: Homo sapiens, NCI-H460
Experimental Readout: GI50 (µM)
Just the number in µM, nothing appended.

Summary for this molecule, C=C(C)[C@@H]1CC[C@]2(COS(=O)(=O)c3ccc(C)cc3)CC[C@]3(C)[C@@H](CC[C@@H]4[C@@]5(C)CCCNC(C)(C)[C@@H]5CC[C@]43C)[C@@H]12 : GI50 is 1.68

Record summary for C=C(C)[C@@H]1CCC=C2CC[C@]3(C)[C@H](CC[C@@H]4[C@@]5(C)CCCNC(C)(C)[C@@H]5CC[C@]43C)[C@H]21 : reported GI50 = 1.22

Documented GI50 of C=C(C)[C@@H]1CC[C@]2(C)[C@H](CC=C3[C@@H]4[C@@H](C)[C@H](C)CC[C@]4(CO)CC[C@]32C)[C@@]1(C)CCCN : 0.91

For record C=C(C)[C@@H]1CC[C@]2(C(=O)N[C@H](CO)Cc3ccccc3)CC[C@]3(C)[C@H](CC[C@@H]4[C@@]5(C)CCCNC(C)(C)[C@@H]5CC[C@]43C)[C@@H]12 the listed GI50 is 1.21

get_value(item= CC(C)=C1CCC=C2CC[C@]3(C)[C@H](CC[C@@H]4[C@@]5(C)CCCNC(C)(C)[C@@H]5CC[C@]43C)[C@H]21 , readout=GI50) returns 1.48

Recorded result, C=C(C)C1CCC2(CO)CCC3(C)C(CCC4C5(C)CCCNC(C)(C)C5CCC43C)C12 (centres unmarked) , GI50: 1.63

The reported GI50 of the molecule Cc1ccc(S(=O)(=O)OC[C@@]2(C)CC[C@]3(C)CC[C@]4(C)C(=C3C2)C=C[C@@H]2[C@@]3(C)CCCNC(C)(C)[C@@H]3CC[C@]24C)cc1 was 1.85

Given item CC1(C)NCCC[C@]2(C)[C@H]3C=CC4=C5C[C@@](C)(CO)CC[C@]5(C)CC[C@@]4(C)[C@]3(C)CC[C@@H]12 , the value recorded as its GI50 is 4.17

For reference, reported GI50 for C[C@H]1[C@H](C)CC[C@]2(C(=O)Nc3ccc4ncccc4c3)CC[C@]3(C)C(=CC[C@@H]4[C@@]5(C)CCCNC(C)(C)[C@@H]5CC[C@]43C)[C@H]12 stands at 1.94

The recorded GI50 for C[C@H]1[C@H](C)CC[C@]2(CO)CC[C@]3(C)C(=CC[C@@H]4[C@@]5(C)CCCNC(C)(C)[C@@H]5CC[C@]43C)[C@H]12 is 1.78

get_value(item= CC1(C)CC[C@]2(CO)CC[C@]3(C)C(=CC[C@@H]4[C@@]5(C)CCCNC(C)(C)[C@@H]5CC[C@]43C)[C@@H]2C1 , readout=GI50) returns 1.92
